Target: ScMyo3
Assay: SPOT peptide array binding signal intensity (averaged, normalized) (arbitrary units (background-subtracted, floor 0; scale differs between SH3 domains)); higher = stronger binding of the SH3 domain to the peptide
value-type: SPOT peptide array binding signal intensity
// return just the number, without any unit appended

The following binders have reported results that may help.
binder	assay-result
KRNRLKILLPFLEQS	2.5
RRARRQMGIPTISQV	2.25

Turning to the following binder.
Query: Sample RLPAPPPPPRRGPAP — what was its SPOT peptide array binding signal intensity?
Result: 881
